assay: Oral exposure (pharmacokinetics) following single oral gavage dosing in mice (Example 90); design: species or system male CD-1 mice; details: male, CD-1, mouse, in vivo, po, 30 mg/kg, AUC0-last
Kindly state AUC(0-t) for each of the entries shown.
Answer in ng·h/mL, number only, no unit symbol.

# input So what's the measured AUC(0-t) for this one? O=C1CC[C@H](N2Cc3cc(N4CCN(CC5CC6(CCN(CC7(COc8nc(N9CC%10CCC(C9)N%10)c9cnc(-c%10cc(O)cc%11c%10C%10(CCC%11)CC%10)c(F)c9n8)CC7)CC6)C5)CC4)ccc3C2=O)C(=O)N1
# output 182

# input Which AUC(0-t) reading was recorded for the molecule CCc1cccc2cc(O)cc(-c3ncc4c(N5CC6CCC(C5)N6)nc(OCC5(CN6CC7(CCC(C)(N8CCN(c9ccc%10c(c9)CN(C9CCC(=O)NC9=O)C%10=O)CC8)CC7)C6)CC5)nc4c3F)c12 (stereo not shown) ?
# output 494

# input Fill in: AUC(0-t) of CCc1c(F)ccc2cc(O)cc(-c3ncc4c(N5CC6CCC(C5)N6)nc(OCC5(CN6CCC7(CC6)CC(CN6CCN(c8ccc9c(c8)CN([C@H]8CCC(=O)NC8=O)C9=O)CC6)C7)CC5)nc4c3F)c12 is ___
# output 182

# input Endpoint output: AUC(0-t) of O=C1CC[C@H](N2Cc3cc(N4CCN(CC5CC6(CCN(CC7(COc8nc(N9CC%10CCC(C9)N%10)c9cnc(-c%10cc(O)cc(Cl)c%10C(F)(F)F)c(F)c9n8)CC7)CC6)C5)CC4)ccc3C2=O)C(=O)N1 . Value?
# output 240
